# Subject of test: the molecule itself
# Assay details: SEC + other: NMR
Measurement label: stoichiometry N

* talin 2300–2541 L2309A/L2323A (domain or fragment, mouse, UniProt P26039 2300-2541, looked up) DPTVIAENEALGAAAAIEAAAKKAEQLKPRAKPKEADESLNFEEQILEAAKSIAAATSALVKAASAAQRELVAQGKVGAIPANALDDGQWSQGLISAARMVAAATNNLCEAANAAVQGHASQEKLISSAKQVAASTAQLLVACKVKADQDSEAMKRLQAAGNAVKRASDNLVKAAQKAAAFEDQENETVVVKEKMVGGIAQIIAAQEEMLRKERELEEARKKLAQIRQQQYKFLPSELRDEH | 2
